- target: T1, human EPH receptor A5 (EphA5) expressed on cells (human, UniProt P54756 25-1037)
- T1 construct: Cell line (H460 stably expressing EphA5; HEK-293T transfected with EPHA5 clone or wild-type construct; lung cancer lines with endogenous or variable expression); also called cell-surface EphA5; wild-type target protein
- T1 sequence (P54756 25-1037 limits assumed): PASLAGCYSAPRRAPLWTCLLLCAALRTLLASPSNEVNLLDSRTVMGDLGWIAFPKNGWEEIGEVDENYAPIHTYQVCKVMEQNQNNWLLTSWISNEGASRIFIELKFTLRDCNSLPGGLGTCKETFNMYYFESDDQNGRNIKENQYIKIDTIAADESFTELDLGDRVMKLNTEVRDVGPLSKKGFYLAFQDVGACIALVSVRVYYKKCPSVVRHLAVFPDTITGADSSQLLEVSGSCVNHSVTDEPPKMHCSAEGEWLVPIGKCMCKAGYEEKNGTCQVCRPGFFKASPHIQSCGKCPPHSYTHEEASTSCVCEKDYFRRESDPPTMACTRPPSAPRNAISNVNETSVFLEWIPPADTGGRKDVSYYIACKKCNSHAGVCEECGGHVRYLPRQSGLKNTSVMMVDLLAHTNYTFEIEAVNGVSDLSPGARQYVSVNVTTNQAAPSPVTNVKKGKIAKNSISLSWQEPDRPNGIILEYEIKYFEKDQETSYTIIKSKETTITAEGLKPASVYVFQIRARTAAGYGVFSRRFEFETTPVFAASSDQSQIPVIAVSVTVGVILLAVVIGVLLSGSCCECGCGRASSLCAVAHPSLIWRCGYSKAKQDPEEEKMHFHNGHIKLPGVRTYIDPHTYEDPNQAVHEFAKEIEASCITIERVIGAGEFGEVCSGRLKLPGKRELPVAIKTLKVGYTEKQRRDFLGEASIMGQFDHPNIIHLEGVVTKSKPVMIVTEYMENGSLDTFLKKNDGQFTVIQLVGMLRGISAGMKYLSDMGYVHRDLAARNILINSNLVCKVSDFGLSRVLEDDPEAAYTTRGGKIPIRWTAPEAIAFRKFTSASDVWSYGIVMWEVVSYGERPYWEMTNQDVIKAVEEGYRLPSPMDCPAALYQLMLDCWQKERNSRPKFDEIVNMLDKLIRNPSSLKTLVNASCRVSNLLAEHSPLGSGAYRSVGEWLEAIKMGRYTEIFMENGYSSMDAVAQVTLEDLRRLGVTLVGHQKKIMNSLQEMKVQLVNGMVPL
- method-description: flow cytometry on H460 (EphA5+) cells, starting assay concentration 10 µg/mL
Give measured EC50 for each item. Keep answers brief.
Answer shape: numeric part, then the unit.

Inquiry: Item under review: VH4/VK4 humanized 11C12 antibody (antibody, human IgG1, kappa, V domains shown, Human IgG1/kappa; lead variant, tested as HEK supernatant and as protein purified from CHO; also called H4K4) VH: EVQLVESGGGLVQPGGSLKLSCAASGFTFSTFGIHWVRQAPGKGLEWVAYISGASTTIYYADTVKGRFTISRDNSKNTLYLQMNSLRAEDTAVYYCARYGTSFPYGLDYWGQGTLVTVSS VL: DIVMTQSPDSLAVSLGERATINCKSSQSVDYDGDSYMNWYQQKPGKAPKLLIYGASNLESGIPDRFSGSGSGTDFTLTISRLEPEDAASYYCQQSNEDPFTFGQGTKLEIKR . Reported EC50?
Reply text: 0.017 µg/mL

Inquiry: Item under review: anti-human EphA5 monoclonal murine antibody 11C12 (antibody, V domains shown, Full murine antibody; also called murine 11C12; mouse 11C12) VH: EVTLKESGGGLVQPGGSRKLSCAASGFTFSTFGIHWVRQAPEKGLEWVAYISGASTTIYYADTVKGRFTISRDNPKNTLFLQMTSLRSEDTAMYYCARYGTSFPYGLDYWGQGTSVTVSS VL: DIVMTQSPGSLAVSLGQRATISCKASQSVDYDGDSYMNWYQQKPGQPPKLLIYGASNLESGIPARFSGSGSGTDFTLNIHPVEEEDAASYYCQQSNEDPFTFGSGTKLEIK . Reported EC50?
Reply text: 0.025 µg/mL

Inquiry: Item under review: chimeric VH0/VK0 antibody (murine 11C12 variable regions, human IgG1/kappa constant regions) (antibody, V domains shown, also called chimeric antibody) VH: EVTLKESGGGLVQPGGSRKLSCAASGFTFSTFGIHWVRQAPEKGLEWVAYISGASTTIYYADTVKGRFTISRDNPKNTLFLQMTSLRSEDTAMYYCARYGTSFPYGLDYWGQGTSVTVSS VL: DIVMTQSPGSLAVSLGQRATISCKASQSVDYDGDSYMNWYQQKPGQPPKLLIYGASNLESGIPARFSGSGSGTDFTLNIHPVEEEDAASYYCQQSNEDPFTFGSGTKLEIKR . Reported EC50?
Reply text: 0.015 µg/mL

Inquiry: Item under review: VH5/VK4 humanized 11C12 antibody (antibody, human IgG1, kappa, V domains shown, Human IgG1/kappa; lead variant, tested as HEK supernatant and as protein purified from CHO; also called H5K4) VH: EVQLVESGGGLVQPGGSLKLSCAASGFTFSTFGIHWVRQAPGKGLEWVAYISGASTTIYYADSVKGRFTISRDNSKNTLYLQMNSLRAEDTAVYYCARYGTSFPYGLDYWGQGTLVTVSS VL: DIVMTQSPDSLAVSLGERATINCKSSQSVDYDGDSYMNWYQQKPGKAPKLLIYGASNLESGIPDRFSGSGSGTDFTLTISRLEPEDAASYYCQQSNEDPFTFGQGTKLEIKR . Reported EC50?
Reply text: 0.018 µg/mL

Inquiry: Item under review: VH5/VK2 humanized 11C12 antibody (antibody, human IgG1, kappa, V domains shown, Human IgG1/kappa; lead variant, tested as HEK supernatant and as protein purified from CHO; also called H5K2) VH: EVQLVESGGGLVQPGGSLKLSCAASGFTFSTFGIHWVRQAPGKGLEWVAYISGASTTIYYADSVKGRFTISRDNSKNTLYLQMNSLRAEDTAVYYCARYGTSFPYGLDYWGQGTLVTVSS VL: DIVMTQSPDSLAVSLGERATINCKASQSVDYDGDSYMNWYQQKPGKAPKLLIYGASNLESGIPDRFSGSGSGTDFTLTISRLEPEDAASYYCQQSNEDPFTFGQGTKLEIKR . Reported EC50?
Reply text: 0.017 µg/mL

Where do the numbers come from? From patent US20240115722A1.
